- ASSAY_SYSTEM: Proteasome Macropain subunit MB1 (Homo sapiens, UniProt P28074)
- Sequence (P28074 whole entry): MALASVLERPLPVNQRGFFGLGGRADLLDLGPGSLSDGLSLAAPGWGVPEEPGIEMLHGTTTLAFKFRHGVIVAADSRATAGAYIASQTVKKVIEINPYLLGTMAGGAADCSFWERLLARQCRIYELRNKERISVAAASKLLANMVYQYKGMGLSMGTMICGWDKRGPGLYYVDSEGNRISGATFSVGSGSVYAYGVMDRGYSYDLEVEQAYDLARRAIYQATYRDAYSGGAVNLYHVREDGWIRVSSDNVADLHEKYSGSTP
- TEST_PROTOCOL: Inhibition of chymotrypsin-like activity of human 26S proteasome extracted from human LNCap cells assessed as decrease in AMC hydrolysis using Suc-Leu-Leu-Val-Tyr-AMC as substrate incubated for 60 mins by fluorescence based method
- Assay type: cell-free
pIC50: −log10 of the molar value.
READOUT_TYPE: pIC50

pIC50 measured on O=c1c(-c2ccc(O)cc2)coc2cc(O)cc(O)c12 [GENISTEIN] = 4.15 to 4.19

----------
- ASSAY_SYSTEM: Proteasome Macropain subunit MB1 (Homo sapiens)
- TEST_PROTOCOL: Inhibition of chymotrypsin-like activity of purified human 20S proteasome expressed in human Jurkat cells assessed as decrease in AMC hydrolysis using Suc-Leu-Leu-Val-Tyr-AMC as substrate incubated for 2 hrs by fluorescence based method
For each of the compounds below, state its IC50.
Answers are plain numbers, in µM.

- CHEMICAL_STRING: "O=C1C[C@@H](c2ccc(O)cc2)Oc2cc(O)cc(O)c21"
  IC50, µM: 48.8
- CHEMICAL_STRING: "O=c1c(O)c(-c2ccc(O)cc2)oc2cc(O)cc(O)c12"
  IC50, µM: 10.5
- CHEMICAL_STRING: "O=c1c(O)c(-c2cc(O)c(O)c(O)c2)oc2cc(O)cc(O)c12"
  IC50, µM: 10
- CHEMICAL_STRING: "O=c1c(O)c(-c2ccc(O)c(O)c2)oc2cc(O)cc(O)c12"
  IC50, µM: 3.5

Could I get IC50 for every one of these entries?
1. O=c1cc(-c2ccc(O)c(O)c2)oc2cc(O)cc(O)c12
2. O=C1C[C@@H](c2ccc(O)c(O)c2)Oc2cc(O)cc(O)c21
3. O=c1cc(-c2ccccc2)oc2cc(O)cc(O)c12

Ans.
[1.5, 16.2, 4.9]
